Every entry's value here was drawn from paper PMC8434401.

tested.system: Aspergillus oryzae α-amylase (Aspergillus oryzae)
test.summary: biochemical
condition.context: Table S1, from the concentration-response curves used to calculate the IC50 values (concentrations in μM); read-out: log(IC50) (converted)
For each record, write down the corresponding IC50.
Reply with the number and its unit after it.

Request: IC50 of COc1ccc(-c2cc(COc3c(-c4ccc(C(F)(F)F)cc4)oc4ccc(Cl)cc4c3=O)on2)cc1OC [Compound 3m] on Aspergillus oryzae α-amylase (Aspergillus oryzae)?
Result: 13.8 µM

Request: # repeat for O=c1c(O)c(-c2ccc(C(F)(F)F)cc2)oc2ccc(Cl)cc12 [Compound 1]
Result: 15.3 µM

Request: # repeat for O=c1c(OCc2cc(-c3ccc(F)cc3)no2)c(-c2ccc(C(F)(F)F)cc2)oc2ccc(Cl)cc12 [Compound 3b]
Result: 12.6 µM

Request: # repeat for CC(C)(C)c1ccc(-c2cc(COc3c(-c4ccc(C(F)(F)F)cc4)oc4ccc(Cl)cc4c3=O)on2)cc1 [Compound 3f]
Result: 27.6 µM

Request: # repeat for O=c1c(OCc2cc(-c3ccc(Br)cc3)no2)c(-c2ccc(C(F)(F)F)cc2)oc2ccc(Cl)cc12 [Compound 3d]
Result: 14.6 µM

Request: # repeat for CCCCOc1ccc(-c2cc(COc3c(-c4ccc(C(F)(F)F)cc4)oc4ccc(Cl)cc4c3=O)on2)cc1 [Compound 3i]
Result: 15.6 µM

Request: # repeat for O=c1c(OCc2cc(-c3ccc([N+](=O)[O-])cc3)no2)c(-c2ccc(C(F)(F)F)cc2)oc2ccc(Cl)cc12 [Compound 3g]
Result: 18.1 µM

Request: # repeat for O=c1c(OCc2cc(-c3ccccc3)no2)c(-c2ccc(C(F)(F)F)cc2)oc2ccc(Cl)cc12 [Compound 3a]
Result: 27.2 µM

---

tested.system: Aspergillus oryzae α-amylase (Aspergillus oryzae, UniProt P0C1B3)
test.summary: biochemical
condition.context: Table S1, from the concentration-response curves used to calculate the IC50 values (concentrations in μM); read-out: log(IC50) (converted)
Description: The α-amylase inhibition assays were carried out according to the protocol described by Chortani et al. (2021), with some modifications. In short, all of the compounds were dissolved in DMSO and then diluted in sodium phosphate buffer (0.02 M, pH 6.9 with 0.006 M NaCl). […] The samples were tested at different concentrations of 50, 25, 12.5, and 6.25 μM. […] Over time, the absorbance was measured at 540 nm using a Thermo Scientific™ Multiskan™ GO Microplate Spectrophotometer using a 96-well microplate. […]
recorded.endpoint: IC50 (µM)
The figure you give is taken to be in µM; do not add the unit.

Request: Fill in the blank: the reported IC50 of COc1ccc(-c2cc(COc3c(-c4ccc(C(F)(F)F)cc4)oc4ccc(Cl)cc4c3=O)on2)cc1Br is ____.
Result: 23

Request: # repeat for CCCCOc1ccc(-c2cc(COc3c(-c4ccc(C(F)(F)F)cc4)oc4ccc(Cl)cc4c3=O)on2)cc1Cl
Result: 13.7

Request: # repeat for O=c1c(OCc2cc(-c3ccc(Cl)cc3)no2)c(-c2ccc(C(F)(F)F)cc2)oc2ccc(Cl)cc12
Result: 14.4

Request: # repeat for COc1ccc(-c2cc(COc3c(-c4ccc(C(F)(F)F)cc4)oc4ccc(Cl)cc4c3=O)on2)cc1Cl
Result: 21

Request: # repeat for Cc1ccc(-c2cc(COc3c(-c4ccc(C(F)(F)F)cc4)oc4ccc(Cl)cc4c3=O)on2)cc1
Result: 26

Request: # repeat for C#CCOc1c(-c2ccc(C(F)(F)F)cc2)oc2ccc(Cl)cc2c1=O
Result: 17.7

Request: # repeat for COc1ccc(-c2cc(COc3c(-c4ccc(C(F)(F)F)cc4)oc4ccc(Cl)cc4c3=O)on2)cc1
Result: 13.3

---

For each record, write down the corresponding melting point.
The figure you give is taken to be in °C; do not add the unit.

Request: Fill in the blank: the reported melting point of CCCCOc1ccc(-c2cc(COc3c(-c4ccc(C(F)(F)F)cc4)oc4ccc(Cl)cc4c3=O)on2)cc1Cl is ____.
Result: 134

Request: # repeat for O=c1c(OCc2cc(-c3ccc(Cl)cc3)no2)c(-c2ccc(C(F)(F)F)cc2)oc2ccc(Cl)cc12
Result: 177

Request: # repeat for COc1ccc(-c2cc(COc3c(-c4ccc(C(F)(F)F)cc4)oc4ccc(Cl)cc4c3=O)on2)cc1OC
Result: 152

Request: # repeat for O=c1c(OCc2cc(-c3ccc(F)cc3)no2)c(-c2ccc(C(F)(F)F)cc2)oc2ccc(Cl)cc12
Result: 147

Request: # repeat for COc1ccc(-c2cc(COc3c(-c4ccc(C(F)(F)F)cc4)oc4ccc(Cl)cc4c3=O)on2)cc1Br
Result: 144

Request: # repeat for CC(C)(C)c1ccc(-c2cc(COc3c(-c4ccc(C(F)(F)F)cc4)oc4ccc(Cl)cc4c3=O)on2)cc1
Result: 112

Request: # repeat for O=c1c(OCc2cc(-c3ccc(Br)cc3)no2)c(-c2ccc(C(F)(F)F)cc2)oc2ccc(Cl)cc12
Result: 179

---

tested.system: UniProt:P0C1B3
test.summary: biochemical
condition.context: read-out: α-Amylase Inhibition PI ± SEM% (percentage inhibition)
Values of inhibition at 50 µM greater than or equal to 90% map to true (1); values below map to false (0).

Request: Decide: inhibition at 50 µM of O=c1c(OCc2cc(-c3ccc(Br)cc3)no2)c(-c2ccc(C(F)(F)F)cc2)oc2ccc(Cl)cc12 >= 90%?
Result: false (0)

Request: # repeat for C#CCOc1c(-c2ccc(C(F)(F)F)cc2)oc2ccc(Cl)cc2c1=O
Result: false (0)

Request: # repeat for C[C@H]1O[C@H](O[C@H]2[C@H](O)[C@@H](O)[C@@H](O[C@H]3[C@H](O)[C@@H](O)C(O)O[C@@H]3CO)O[C@@H]2CO)[C@H](O)[C@@H](O)[C@@H]1N[C@H]1C=C(CO)[C@@H](O)[C@H](O)[C@H]1O (some centres unmarked) [Acarbose, reference compound]
Result: true (1)

Request: # repeat for O=c1c(OCc2cc(-c3ccc(F)cc3)no2)c(-c2ccc(C(F)(F)F)cc2)oc2ccc(Cl)cc12
Result: true (1)

Request: # repeat for CCCCOc1ccc(-c2cc(COc3c(-c4ccc(C(F)(F)F)cc4)oc4ccc(Cl)cc4c3=O)on2)cc1
Result: false (0)

---

recorded.endpoint: melting point (°C)
The figure you give is taken to be in °C; do not add the unit.

Request: Fill in the blank: the reported melting point of COc1ccc(-c2cc(COc3c(-c4ccc(C(F)(F)F)cc4)oc4ccc(Cl)cc4c3=O)on2)cc1Cl is ____.
Result: 141

Request: # repeat for Cc1ccc(-c2cc(COc3c(-c4ccc(C(F)(F)F)cc4)oc4ccc(Cl)cc4c3=O)on2)cc1
Result: 171

Request: # repeat for O=c1c(OCc2cc(-c3ccc([N+](=O)[O-])cc3)no2)c(-c2ccc(C(F)(F)F)cc2)oc2ccc(Cl)cc12
Result: 175

Request: # repeat for O=c1c(O)c(-c2ccc(C(F)(F)F)cc2)oc2ccc(Cl)cc12
Result: 275

Request: # repeat for C#CCOc1c(-c2ccc(C(F)(F)F)cc2)oc2ccc(Cl)cc2c1=O
Result: 122

Request: # repeat for CCCCOc1ccc(-c2cc(COc3c(-c4ccc(C(F)(F)F)cc4)oc4ccc(Cl)cc4c3=O)on2)cc1
Result: 130

Request: # repeat for COc1ccc(-c2cc(COc3c(-c4ccc(C(F)(F)F)cc4)oc4ccc(Cl)cc4c3=O)on2)cc1
Result: 152

Request: # repeat for O=c1c(OCc2cc(-c3ccccc3)no2)c(-c2ccc(C(F)(F)F)cc2)oc2ccc(Cl)cc12
Result: 134

---

tested.system: Aspergillus oryzae α-amylase (Aspergillus oryzae, UniProt P0C1B3)
test.summary: biochemical
condition.context: potency; concentration providing 50% inhibition; mean ± SEM, triplicate; read-out: α-Amylase Inhibition IC50 ± SEM
recorded.endpoint: IC50 (µM)
The figure you give is taken to be in µM; do not add the unit.

Request: Fill in the blank: the reported IC50 of COc1ccc(-c2cc(COc3c(-c4ccc(C(F)(F)F)cc4)oc4ccc(Cl)cc4c3=O)on2)cc1OC is ____.
Result: 13.8

Request: # repeat for O=c1c(OCc2cc(-c3ccc(F)cc3)no2)c(-c2ccc(C(F)(F)F)cc2)oc2ccc(Cl)cc12
Result: 12.6

Request: # repeat for Cc1ccc(-c2cc(COc3c(-c4ccc(C(F)(F)F)cc4)oc4ccc(Cl)cc4c3=O)on2)cc1
Result: 26

Request: # repeat for CCCCOc1ccc(-c2cc(COc3c(-c4ccc(C(F)(F)F)cc4)oc4ccc(Cl)cc4c3=O)on2)cc1
Result: 15.6

Request: # repeat for O=c1c(OCc2cc(-c3ccc(Br)cc3)no2)c(-c2ccc(C(F)(F)F)cc2)oc2ccc(Cl)cc12
Result: 14.6

Request: # repeat for O=c1c(OCc2cc(-c3ccc([N+](=O)[O-])cc3)no2)c(-c2ccc(C(F)(F)F)cc2)oc2ccc(Cl)cc12
Result: 18.1

Request: # repeat for O=c1c(OCc2cc(-c3ccc(Cl)cc3)no2)c(-c2ccc(C(F)(F)F)cc2)oc2ccc(Cl)cc12
Result: 14.4

Request: # repeat for O=c1c(OCc2cc(-c3ccccc3)no2)c(-c2ccc(C(F)(F)F)cc2)oc2ccc(Cl)cc12
Result: 27.2

Request: # repeat for C#CCOc1c(-c2ccc(C(F)(F)F)cc2)oc2ccc(Cl)cc2c1=O
Result: 17.7

Request: # repeat for COc1ccc(-c2cc(COc3c(-c4ccc(C(F)(F)F)cc4)oc4ccc(Cl)cc4c3=O)on2)cc1Cl
Result: 21

Request: # repeat for CCCCOc1ccc(-c2cc(COc3c(-c4ccc(C(F)(F)F)cc4)oc4ccc(Cl)cc4c3=O)on2)cc1Cl
Result: 13.7

Request: # repeat for O=c1c(O)c(-c2ccc(C(F)(F)F)cc2)oc2ccc(Cl)cc12
Result: 15.3

Request: # repeat for CC(C)(C)c1ccc(-c2cc(COc3c(-c4ccc(C(F)(F)F)cc4)oc4ccc(Cl)cc4c3=O)on2)cc1
Result: 27.6

Request: # repeat for COc1ccc(-c2cc(COc3c(-c4ccc(C(F)(F)F)cc4)oc4ccc(Cl)cc4c3=O)on2)cc1Br
Result: 23

Request: # repeat for COc1ccc(-c2cc(COc3c(-c4ccc(C(F)(F)F)cc4)oc4ccc(Cl)cc4c3=O)on2)cc1
Result: 13.3
